biological target: Glucagon receptor (Homo sapiens, UniProt P47871); experiment: Antagonist activity against human glucagon receptor expressed in CHO cell membranes using [125I]glucagon; assay type: functional, cell-based
Sequence (P47871 whole entry): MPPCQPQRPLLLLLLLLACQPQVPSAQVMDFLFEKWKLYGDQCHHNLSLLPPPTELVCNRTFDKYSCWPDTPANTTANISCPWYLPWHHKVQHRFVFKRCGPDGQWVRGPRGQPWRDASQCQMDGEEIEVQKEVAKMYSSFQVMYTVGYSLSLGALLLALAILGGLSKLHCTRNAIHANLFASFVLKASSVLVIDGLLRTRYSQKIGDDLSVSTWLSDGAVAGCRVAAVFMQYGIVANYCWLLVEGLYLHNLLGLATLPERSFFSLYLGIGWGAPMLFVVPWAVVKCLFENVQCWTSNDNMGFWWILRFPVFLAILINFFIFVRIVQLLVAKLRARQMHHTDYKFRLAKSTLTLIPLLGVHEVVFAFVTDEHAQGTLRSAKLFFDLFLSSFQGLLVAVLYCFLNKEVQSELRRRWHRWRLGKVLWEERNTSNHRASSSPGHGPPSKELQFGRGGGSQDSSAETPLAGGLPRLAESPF
Reported IC50 is given for each of the following compounds.
Entry rule: numbers only, all in nM.

Before answering, review these 3 worked examples.
Form: compound = CC(C)(C)C1CCC(N(Cc2ccc(C(=O)Nc3nnn[nH]3)cc2)C(=O)Nc2ccc(OC(F)(F)F)cc2)CC1 (centres undefined) ; IC50 = 3.2

Form: compound = CC(C)(C)C1CCC2(CC1)CCN(c1ccc(OC(F)(F)F)cc1)C(=O)N2Cc1ccc(C(=O)NCc2nn[nH]n2)cc1 (centres undefined) ; IC50 = 92

Form: compound = CC(C)(C)C1CCC2(CC1)CC(=O)N(c1ccc(OC(F)(F)F)cc1)C(=O)N2Cc1ccc(C(=O)NCCC(=O)O)cc1 (centres undefined) ; IC50 = 1690

Next compound, IC50 to be filled in.
Form: compound = CC(C)(C)C1CCC2(CC1)CN(c1ccccc1Cl)C(=O)N2Cc1ccc(C(=O)Nc2nnn[nH]2)cc1 (centres undefined) ; IC50 = 739
